# Tested on: RPMI-8226 leukemia
# experiment-notes: NCI tumour cell line growth inhibition, 48 h; in the data active means GI50 below about 0.43 µM; inactive means the rest
Pick one: label 1 (active), label 0 (inactive)

Recorded results for 2 compounds are shown here.
| compound | assigned-class |
| --- | --- |
| CCOC(=O)CC1C(COC(=O)NC)OC(n2cnc3c(NC(=O)Nc4ccccc4)ncnc32)C1O[Si](C)(C)C(C)(C)C (stereo not drawn) | label 0 |
| CN1C(=O)N[C@H]2[C@@H]3NC(=O)c4ccc(Br)n4[C@@H]3C[C@]21O | label 1 |

Query: Record request — test call for Cn1c2ccc(Br)cc2c2c3c(c4c5ccccc5[nH]c4c21)C(=O)N(O)C3=O
Response: label 1

Query: Record request — test call for O=C(Nc1ccc(-n2ccc3c(NC(=O)c4ccccc4)ncnc32)cc1)Nc1cccc(Cl)c1Cl
Response: label 0

Query: Record request — test call for O=C1/C(=C\c2ccccn2)c2ccccc2N1c1c(Cl)cccc1Cl
Response: label 0

Query: Record request — test call for Cc1ccc(N(CC(=O)Nc2ccc(S(=O)(=O)N3CCC(N4CCCC4)CC3)cc2)S(=O)(=O)c2ccc(Cl)cc2)cc1
Response: label 0

Query: Record request — test call for COc1ccccc1CNCCCN1C(=O)c2ccc3c4c(ccc(c24)C1=O)C(=O)N(CCCCNCCCN)C3=O
Response: label 0

Query: Record request — test call for CC(C)(C)[Si](C)(C)OC1[C@@H](O[Si](C)(C)C(C)(C)C)[C@@H](CNC(=O)NC(=O)CCl)O[C@H]1n1cnc2c(NC(=O)Nc3ccccc3)ncnc21 (stereo partly drawn)
Response: label 1

###

# Tested on: SNB-75 CNS
# experiment-notes: NCI tumour cell line growth inhibition, 48 h
reported-property: TGI

Please review the following examples before continuing.
| molecule | TGI |
| --- | --- |
| Cc1cc(S(=O)(=O)Nc2nc(N)nc(N(C)C)n2)c(SCC(=O)O)cc1Cl | > 10 µM |
| CCCCCCCCCCCCCCCCOC[C@@H](COC(c1ccccc1)(c1ccccc1)c1ccccc1)O[P+](=S)OC (stereo not given in full) | 29.6 µM |

Query: May I ask what TGI has been recorded for CSc1n[n+]2c(s1)SCCC2 ?
Response: > 100 µM

Query: May I ask what TGI has been recorded for CC1(C)C2CC(=O)C1(C)C(OCc1ccccc1)C2 (stereo not given) ?
Response: > 100 µM

Query: May I ask what TGI has been recorded for FC(F)(F)c1cccc(-c2nc3ccccc3c3c2[C@@]2(N4CCCC4)CCCC[C@@H]32)c1 ?
Response: > 100 µM

Query: May I ask what TGI has been recorded for O=C1OC(O)C(Oc2c(Cl)cccc2Cl)=C1Cl (stereo not given) ?
Response: 54.6 µM

Query: May I ask what TGI has been recorded for c1c[nH]c(C23C4C5C6C4C2C6C53)n1 (stereo not given) ?
Response: > 100 µM

Query: May I ask what TGI has been recorded for N#Cc1c(-c2ccccc2)c(N=Nc2ccc(Cl)cc2)c(=O)n2c1[nH]c1ccccc12 ?
Response: > 100 µM

Query: May I ask what TGI has been recorded for CC(=O)On1c(-c2ccccc2-c2nc3ccccc3n2OC(C)=O)nc2ccccc21 ?
Response: > 100 µM

Query: May I ask what TGI has been recorded for C/C=C/C1OC(O)(C(C)C(O)[C@H](C)C2OC(=O)/C(OC)=C/C(C)=C/[C@@H](C)[C@@H](O)[C@@H](C)C(O)C(C)C/C(C)=C/C=C/C2OC)C[C@@H](OC2CC(O)C(OC(N)=O)C(C)O2)C1C (stereo not given in full) ?
Response: 2.12 µM

###

# System: CAKI-1 renal
# experiment-notes: NCI tumour cell line growth inhibition, 48 h
reported-property: TGI

Please review the following examples before continuing.
| compound | TGI |
| --- | --- |
| COc1ccc(N2C(=O)C3c4[nH]c5ccc(F)cc5c4C4CCC(c5ccccc5)CC4C3C2=O)cc1 (stereo not given) | 48.1 µM |
| Cc1ccc(NC(=O)CSc2nc(=O)[nH]c3nc[nH]c23)cc1 | > 100 µM |
| Cc1c(C(=O)/C=C/c2ccc(N(C)C)cc2)c(=O)n(-c2ccccc2)n1C | > 100 µM |
| Cc1noc(NC2=CC(=O)C(=O)c3ccccc32)c1C | > 100 µM |

Query: May I ask what TGI has been recorded for CC(=O)NC1=C[C@@H]([C@H]2COC(C)(C)O2)OC1=O ?
Response: > 100 µM

Query: May I ask what TGI has been recorded for Cc1c2c(OCCN3CCCCC3)nn(C)c(=O)c2c(C)n1-c1ccccc1 ?
Response: > 100 µM

Query: May I ask what TGI has been recorded for CC1(C)C2CC(=O)C1(C)C(OCc1ccccc1)C2 (stereo not given) ?
Response: > 100 µM

###

# Test system: HCT-116 colon
# experiment-notes: NCI tumour cell line growth inhibition, 48 h; in the data active = GI50 below about 0.43 µM; inactive = the rest
Pick one: T for active, F for inactive

Recorded results for 2 compounds are shown here.
| compound | assigned-class |
| --- | --- |
| COc1cc(-c2nc(-c3nc4ccccc4[nH]3)cc3c2[nH]c2ccccc23)cc(OC)c1OC | F |
| O=C(/C=C/c1ccccc1)n1c(-c2ccc(Cl)cc2)nc2ccccc21 | F |

Query: Record request — test call for Cn1c2ccc(Br)cc2c2c3c(c4c5ccccc5[nH]c4c21)C(=O)N(O)C3=O
Response: T

Query: Record request — test call for CC(=O)[CH-]C(=O)c1ccccc1.CC(=O)[CH-]C(=O)c1ccccc1.CCOCC[O-].CCOCC[O-].[Ti+4]
Response: F

Query: Record request — test call for Nc1nc(N)c2cc(NCc3ccc(Cl)c(Cl)c3)ccc2n1
Response: T

Query: Record request — test call for CCn1c(-c2cc3ccccc3cc2O)nn(C(=O)c2c(Cl)cccc2Cl)c1=S
Response: F

Query: Record request — test call for COC(=O)c1cc(O)c2c(c1C(=O)OC)C[C@H]1[C@@H]3CC=C4C[C@@H](O)CC[C@]4(C)[C@H]3CC[C@]21C
Response: F

Query: Record request — test call for CCN(CC)CCCNC(=O)c1c2c(n3ccccc13)C(=O)c1ncccc1C2=O
Response: T

Query: Record request — test call for COc1ccc(C(=O)c2cc3c(N)c(C(=O)Nc4ccc(C)cc4)sc3nc2C)cc1
Response: F

Query: Record request — test call for OCC(O)c1nc2ccc3[nH]ncc3c2c2c1CCCC2 (stereo not given)
Response: F

###

# Tested on: SR leukemia
# experiment-notes: NCI tumour cell line growth inhibition, 48 h
reported-property: TGI

Please review the following examples before continuing.
| compound | TGI |
| --- | --- |
| O=[N+]([O-])C1Cc2ccccc2OC1c1ccccc1 (stereo unspecified) | 66.6 µM |
| COc1cccc(/C=C/C(=O)c2ccc(Cl)cc2Cl)c1 | > 50 µM |
| Cc1cc(C)c(NC(=S)NC(=O)c2ccccc2)cc1C | > 100 µM |
| CC1=NN(c2nc(N)nc(CC#N)n2)C(C)(C)C1 | > 100 µM |
| O=C(O)CC1NCc2cc3ccccc3nc21 (stereo unspecified) | > 100 µM |

Query: May I ask what TGI has been recorded for CCOC(=O)/C(C#N)=C/c1ccnc2ccccc12 ?
Response: 64.9 µM

Query: May I ask what TGI has been recorded for O=c1c(=O)c2c(Br)sc(Br)c2c1=O ?
Response: 44.2 µM

Query: May I ask what TGI has been recorded for CCn1c(-c2cc3ccccc3cc2O)nn(C(=O)c2c(Cl)cccc2Cl)c1=S ?
Response: > 50 µM

Query: May I ask what TGI has been recorded for CNC(=O)Cc1nc(-c2cccc(NS(=O)(=O)c3c(F)cccc3F)c2F)c(-c2ccnc(Nc3ccccc3)n2)s1 ?
Response: > 50 µM

Query: May I ask what TGI has been recorded for CC/C(CC(=O)CCC(=O)Nc1ccccc1[N+](=O)[O-])=N/NC(=O)C[n+]1ccccc1 ?
Response: > 100 µM

Query: May I ask what TGI has been recorded for COc1ccc(/C=N\Nc2ccc([N+](=O)[O-])cn2)cc1OC ?
Response: > 100 µM

###

Let's look at some compounds and their measured TGI.
# Tested on: OVCAR-3 ovarian
# experiment-notes: NCI tumour cell line growth inhibition, 48 h
Field format: number, assumed µM, no unit text.

Query: May I ask what TGI has been recorded for CCOC(=O)c1sc2[n+](c1C)C(=O)/C(=C/c1ccc([N+](=O)[O-])cc1)S2 ?
Response: 24.1

Query: May I ask what TGI has been recorded for COc1ccccc1CNCCCN1C(=O)c2ccc3c4c(ccc(c24)C1=O)C(=O)N(CCCCNCCCN)C3=O ?
Response: 1.14

Query: May I ask what TGI has been recorded for CC(C)(C)C(=O)OC12/C(=N/O)CCCCCC1c1ccccc12 (stereo not given) ?
Response: 32.1

###

# Test system: HL-60(TB) leukemia
# experiment-notes: NCI tumour cell line growth inhibition, 48 h
Let's look at some molecules and their measured GI50.

Please review the following examples before continuing.
| molecule | reported-property | test-value |
| --- | --- | --- |
| C=C1CCC2C(C)(COC(=O)CC)C(OC(=O)CC)CCC2(C)C1C/C=C1/C(=O)OCC1OC(=O)CC (stereo not drawn) | GI50 | 1820 nM |
| Nc1nc(N)c2cc(NCc3ccc(Cl)c(Cl)c3)ccc2n1 | GI50 | 1350 nM |
| CCOC(=O)CC1C(COC(=O)NC)OC(n2cnc3c(NC(=O)Nc4ccccc4)ncnc32)C1O[Si](C)(C)C(C)(C)C (stereo not drawn) | GI50 | 1390 nM |
| CCC(CNc1cc(OC)cc2cccnc12)NC1CCCCC1 (stereo not drawn) | GI50 | 15200 nM |
| CCCC(CCC)C(=O)OCC1(CO)C/C(=C\c2ccc(F)cc2)C(=O)O1 (stereo not drawn) | GI50 | 907 nM |
| CCCCCCCCCCC1OC([C@@H](O)CC[C@H](O)C2CC[C@@H](CCCCCCCC(O)CC3=CC(C)OC3=O)O2)CCC1O (stereo partly drawn) | GI50 | 4470 nM |
| O=Cc1ccc(-c2ccc(-c3nc4ccccc4o3)cc2)o1 | GI50 | > 100000 nM |

Next:
Query: May I ask what GI50 has been recorded for Cc1cc(C)c(Cn2cnc3c(Cl)ncnc32)c(C)c1CCl ?
Response: 27200 nM
